# key: entry, value: pIC50
system: VCAM-1; assay: VCAM-1 assay with ELISA readout (Examples 5-6); type: cell-based; settings: 16 h, TNF added with compound, incubated overnight (approximately 16 hours)
Please keep in mind that pIC50 is minus log10 of the molar concentration; only the number is needed.

The examples below pair each entry with its known result.
# Compound, pIC50
records = [
    ("CC(C)(Sc1cc(C(C)(C)C)c(O)c(C(C)(C)C)c1)Sc1cc(C(C)(C)C)c(OC=CCO)c(C(C)(C)C)c1", 4.26),
    ("CC(C)(Sc1cc(C(C)(C)C)c(O)c(C(C)(C)C)c1)Sc1cc(C(C)(C)C)c(OC(=O)c2ccc([N+](=O)[O-])o2)c(C(C)(C)C)c1", 4.60),
    ("CN(C)c1ccc(CCOc2c(C(C)(C)C)cc(SC(C)(C)Sc3cc(C(C)(C)C)c(O)c(C(C)(C)C)c3)cc2C(C)(C)C)cc1", 4.26),
]

The recorded pIC50 for CC(C)(Sc1cc(C(C)(C)C)c(O)c(C(C)(C)C)c1)Sc1cc(C(C)(C)C)c(OC(=O)CCCC(=O)O)c(C(C)(C)C)c1 is 5.06

The recorded pIC50 for CC(C)(Sc1cc(C(C)(C)C)c(O)c(C(C)(C)C)c1)Sc1cc(C(C)(C)C)c(OCCCCN)c(C(C)(C)C)c1 is 5.10

The recorded pIC50 for CC(C)(Sc1cc(C(C)(C)C)c(O)c(C(C)(C)C)c1)Sc1cc(C(C)(C)C)c(OCC(=O)N[C@@H](CCC(=O)O)C(=O)O)c(C(C)(C)C)c1 is 4.12

====

tested on: VCAM-1; experiment: VCAM-1 assay with ELISA readout (Examples 5-6); type: cell-based; conditions: TNF added with compound, incubated overnight (approximately 16 hours)
Where a name gives a salt, the structure may show the parent alone.
Readout Type: IC50

The examples below pair each entry with its known result.
# Compound, IC50
measured = [
    ("CC(C)(Sc1cc(C(C)(C)C)c(OC(=O)CN)c(C(C)(C)C)c1)Sc1cc(C(C)(C)C)c(OC(=O)CN)c(C(C)(C)C)c1 [dihydrochloride]", "> 50 µM"),
    ("CN(C)c1ccc(CCOc2c(C(C)(C)C)cc(SC(C)(C)Sc3cc(C(C)(C)C)c(OCCc4ccc(N(C)C)cc4)c(C(C)(C)C)c3)cc2C(C)(C)C)cc1", "> 50 µM"),
]

The recorded IC50 for CC(C)(Sc1cc(C(C)(C)C)c(O)c(C(C)(C)C)c1)Sc1cc(C(C)(C)C)c(OCC2OC2CO)c(C(C)(C)C)c1 (stereo not drawn) is > 100 µM

====

test system: VCAM-1; experiment: VCAM-1 assay with ELISA readout (Examples 5-6); format: cell-based; details: 16 h, TNF added with compound, incubated overnight (approximately 16 hours)
# key: entry, value: pIC50
Please keep in mind that pIC50 is minus log10 of the molar concentration; only the number is needed.

The examples below pair each entry with its known result.
# Compound, Numeric Readout
records = [
    ("CC(C)(Sc1cc(C(C)(C)C)c(O)c(C(C)(C)C)c1)Sc1cc(C(C)(C)C)c(OCCCCO)c(C(C)(C)C)c1", 3.90),
    ("CC(C)(Sc1cc(C(C)(C)C)c(O)c(C(C)(C)C)c1)Sc1cc(C(C)(C)C)c(O/C=C/C(=O)O)c(C(C)(C)C)c1", 4.52),
    ("C=CC(=O)OCCCCOc1c(C(C)(C)C)cc(SC(C)(C)Sc2cc(C(C)(C)C)c(O)c(C(C)(C)C)c2)cc1C(C)(C)C", 4.12),
    ("CC(C)(Sc1ccc(OCCCC(=O)O)cc1)Sc1cc(C(C)(C)C)c(O)c(C(C)(C)C)c1", 4.72),
    ("CC(C)(CO)CC(=O)Oc1c(C(C)(C)C)cc(SC(C)(C)Sc2cc(C(C)(C)C)c(O)c(C(C)(C)C)c2)cc1C(C)(C)C", 3.96),
    ("CC(C)(Sc1cc(C(C)(C)C)c(O)c(C(C)(C)C)c1)Sc1cc(C(C)(C)C)c(OCC(O)CO)c(C(C)(C)C)c1 (stereo not shown)", 4.52),
    ("CC(C)(Sc1cc(C(C)(C)C)c(O)c(C(C)(C)C)c1)Sc1cc(C(C)(C)C)c(OC(=O)CN)c(C(C)(C)C)c1", 5.30),
    ("CC(C)(Sc1ccc(OCCCCN)cc1)Sc1cc(C(C)(C)C)c(O)c(C(C)(C)C)c1", 5.30),
]

The recorded pIC50 for CC(C)(Sc1cc(C(C)(C)C)c(O)c(C(C)(C)C)c1)Sc1cc(C(C)(C)C)c(OCCCC(=O)O)c(C(C)(C)C)c1 is 4.96

The recorded pIC50 for CC(C)(Sc1cc(C(C)(C)C)c(O)c(C(C)(C)C)c1)Sc1cc(C(C)(C)C)c(OC[C@@H](O)[C@@H](O)[C@H](O)[C@@H](O)CO)c(C(C)(C)C)c1 is 4.82
